Cited source: the MegaScale stability set (Tsuboyama et al. 2023)

B1: EHEE_rd2_0196 (parent)
chain: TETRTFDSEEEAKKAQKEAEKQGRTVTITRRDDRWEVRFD

- Variants of: B1
- Test Protocol: folding stability dG (cDNA display proteolysis); higher = more stable
- Measurement Context: PBS, room temperature
Measured Parameter: folding stability dG
Provide the measurement as a number trailed by its unit.

Task item: May I ask what folding stability dG has been recorded for WETRTFDSEEEAKKAQKEAEKQGRTVTITRRDDRWEVRFD [T1W] ?
Reply: 3.67 kcal/mol

Task item: May I ask what folding stability dG has been recorded for TETRTFDSEEPAKKAQKEAEKQGRTVTITRRDDRWEVRFD [E11P] ?
Reply: 0.769 kcal/mol

Task item: May I ask what folding stability dG has been recorded for TETRTFDSEEEAKKAQKEAIKQGRTVTITRRDDRWEVRFD [E20I] ?
Reply: 2.85 kcal/mol

Task item: May I ask what folding stability dG has been recorded for TETRTFDEEEEAKKAQKEAEKQGRTVTITRRDDRWEVRFD [S8E] ?
Reply: 1.66 kcal/mol

Task item: May I ask what folding stability dG has been recorded for TETRTFDSEEEAKKAQKEAEKQGRTVTITRRDDRDEVRFD [W35D] ?
Reply: 0.578 kcal/mol

Task item: May I ask what folding stability dG has been recorded for TETRTVDSEEEAKKAQKEAEKQGRTVTITRRDDRWEVRFD [F6V] ?
Reply: 1.65 kcal/mol

Task item: May I ask what folding stability dG has been recorded for TETRTFDSEEEAKKAQKEAEKQGRTVTITRRVDRWEVRFD [D32V] ?
Reply: 2.29 kcal/mol

Task item: May I ask what folding stability dG has been recorded for TETRKFDSEEEAKKAQKEAEKQGRTVTITRRDDRWEVRFD [T5K] ?
Reply: 2.09 kcal/mol

Task item: May I ask what folding stability dG has been recorded for TETRTFDSEEEAKKAQKEAEKQGRTVTIWRRDDRWEVRFD [T29W] ?
Reply: 1.8 kcal/mol

Task item: May I ask what folding stability dG has been recorded for DETRTFDSEEEAKKAQKEAEKQGRTVTITRRDDRWEVRFD [T1D] ?
Reply: 2.95 kcal/mol

Task item: May I ask what folding stability dG has been recorded for TETRTFDSEGEAKKAQKEAEKQGRTVTITRRDDRWEVRFD [E10G] ?
Reply: 2.21 kcal/mol

Task item: May I ask what folding stability dG has been recorded for TETRTFDSEEEAKKAQKEAEKQGRWVTITRRDDRWEVRFD [T25W] ?
Reply: 2.22 kcal/mol

Task item: May I ask what folding stability dG has been recorded for TETRTFDSEEYAKKAQKEAEKQGRTVTITRRDDRWEVRFD [E11Y] ?
Reply: 1.46 kcal/mol

Task item: May I ask what folding stability dG has been recorded for TETRTFDSEEEAKKAQKEAEKQGRTYTITRRDDRWEVRFD [V26Y] ?
Reply: 0.849 kcal/mol

Task item: May I ask what folding stability dG has been recorded for TETRTFDSEEEAKKAQKEAEKQGRTVTITRRDDRWEVGFD [R38G] ?
Reply: 2.1 kcal/mol

Task item: May I ask what folding stability dG has been recorded for TETRTFDSEEEAKKAQKEAEKQGRTVTITRRDHRWEVRFD [D33H] ?
Reply: 2.5 kcal/mol

Task item: May I ask what folding stability dG has been recorded for TETRDFDSEEEAKKAQKEAEKQGRTVTITRRDDRWEVRFD [T5D] ?
Reply: 2.04 kcal/mol

Task item: May I ask what folding stability dG has been recorded for TETRTFDSEEEAKKAQKEAEKQGRTVTITRRDDRWEVRFT [D40T] ?
Reply: 3.15 kcal/mol

Task item: May I ask what folding stability dG has been recorded for TETRTFDSEEEAKKAQKEAEKQGRTVTATRRDDRWEVRFD [I28A] ?
Reply: 0.842 kcal/mol

Task item: May I ask what folding stability dG has been recorded for TETRTFDSEEEAKKAQKEAEKQGRTVTITRRDDRWEVEFD [R38E] ?
Reply: 2.68 kcal/mol

Task item: May I ask what folding stability dG has been recorded for TETRTFDSEEEAKKAQKEAEKQGRTVTINRRDDRWEVRFD [T29N] ?
Reply: 2.45 kcal/mol

Task item: May I ask what folding stability dG has been recorded for TRTRTFDSEEEAKKAQKEAEKQGRTVTITRRDDRWEVRFD [E2R] ?
Reply: 2.89 kcal/mol
